Tested on: Rattus norvegicus
ASSAY TEXT: Effective dose to cause hallucinogenic activity in rats using drug discrimination assay by intraperitoneal administration
Format: functional
RUN PARAMETERS: ip
RESULT TYPE: ED50 (mg/kg)
Only the number, expressed in mg/kg, is required.

Consider the worked cases shown below.
COMPOUND	ED50 [mg/kg]
CCN(CC)C(=O)[C@@H]1C=C2c3cccc4[nH]cc(c34)C[C@H]2N(C)C1.O=C(O)C(O)C(O)C(=O)O	0.08
CCN(CC)C(=O)[C@@H]1C=C2c3cccc4[nH]cc(c34)C[C@H]2N(C)C1 [LYSERGIDE]	0.0077
COc1cc(C2CC2N)c(OC)cc1C (centres undefined)	0.163

With those in mind, consider the next compound.
Exercise: Need ED50 of COc1cc(C2CC2N)c(OC)cc1C.Cl (centres undefined) , thanks.
Key: 20
